run_description: NCI Yeast Anticancer Drug Screen. Data for the mlh1 rad18 strain (AID 175)
experimental_conditions: S. cerevisiae mlh1 rad18 strain growth inhibition; at 50.0 µM; stronger effect = higher value
The panel holds about 79,000 compounds, 15% with a hit somewhere; the sample as a whole holds those more often.
We begin with a simple list: items and their reported growth inhibition.

[
  {
    "compound": "Clc1ccc(CSc2cnnc(SCc3ccc(Cl)c(Cl)c3)c2SCc2ccc(Cl)c(Cl)c2)cc1Cl",
    "growth inhibition / %": 17.1
  },
  {
    "compound": "BrCCCCCOc1ccc(-c2c3ccccc3c(-c3ccc(OCCCCCBr)cc3)c3ccccc23)cc1",
    "growth inhibition / %": 12.8
  },
  {
    "compound": "O=c1c2ccccc2oc2cc3c(c(O)c12)CCCC3",
    "growth inhibition / %": -2.95
  },
  {
    "compound": "NC(=S)N/N=C/c1ccccc1S(=O)(=O)O",
    "growth inhibition / %": -4.7
  },
  {
    "compound": "CN(C)Cc1cc(O)c(O)c(CN(C)C)c1",
    "growth inhibition / %": 13.1
  },
  {
    "compound": "CCCCCCC(=O)CC1(C(=O)OC)NC(=S)NC(=O)C1C#N (stereo unspecified)",
    "growth inhibition / %": 15.8
  }
]
